The entries below are paired with their reported Minimal effective concentration in sprouting assay.
- Test system: LEC
- test_protocol: Sprouting assay (LEC-coated microcarriers in collagen)
- Type: cell-based, human
- experimental_conditions: 24 hours
value_kind: Minimal effective concentration in sprouting assay (µM)

compound | assayed_target | unit_abbrev | result_value
CC1=CC[C@H](C)C(C)(C)[C@@H]1/C=C/C(C)=C/CC[C@@]1(CO)[C@H](CCCO)/C(=C(/C)C=O)CC[C@]1(C)O | LEC | µM | 0.03
CC(C)=CCC/C(C)=C/CC(O)/C(C)=C/CC[C@@]1(C)[C@H](CCCO)/C(=C(\C)C=O)CC[C@]1(C)O (stereo partly shown) | LEC | µM | 3
C=C1CC[C@H](C)C(C)(C)[C@@H]1/C=C/C(C)=C/CC[C@@]1(CO)[C@H](CCCO)/C(=C(/C)C=O)CC[C@]1(C)O | LEC | µM | 0.03
C=C1CC[C@H](C)C(C)(C)[C@@H]1CC/C(C)=C/CC[C@@]1(C)[C@H](CCCO)/C(=C(/C)C=O)CC[C@]1(C)O | LEC | µM | 0.01
